subjectOfTest: CYP1A2 (Homo sapiens (Human))
Sequence (P05177 whole entry): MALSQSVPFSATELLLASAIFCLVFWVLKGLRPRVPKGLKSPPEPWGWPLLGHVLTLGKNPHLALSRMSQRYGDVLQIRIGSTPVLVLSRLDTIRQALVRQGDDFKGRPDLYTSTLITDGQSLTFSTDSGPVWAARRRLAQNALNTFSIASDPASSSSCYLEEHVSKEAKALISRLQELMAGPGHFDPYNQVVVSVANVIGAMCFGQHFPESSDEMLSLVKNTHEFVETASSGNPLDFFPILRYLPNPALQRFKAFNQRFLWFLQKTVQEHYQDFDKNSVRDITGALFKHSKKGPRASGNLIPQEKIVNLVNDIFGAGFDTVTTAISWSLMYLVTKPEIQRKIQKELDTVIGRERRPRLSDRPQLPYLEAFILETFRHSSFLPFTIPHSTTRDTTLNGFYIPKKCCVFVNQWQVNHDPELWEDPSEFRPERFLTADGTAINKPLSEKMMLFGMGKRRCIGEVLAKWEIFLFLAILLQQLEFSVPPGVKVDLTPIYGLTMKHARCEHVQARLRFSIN
testName: CYP inhibition assay in mixed human liver microsomes
Type: in vitro ADME
measurementName: inhibition at 10 µM (%)

Some molecules with recorded inhibition at 10 µM:
- sampleSmiles: "COC(=O)NS(=O)(=O)c1sc(CC(C)C)cc1-c1ccc(Cn2ccnc2C(C)(C)C)c(C#N)c1"
  subjectOfTest: "CYP1A2 (Homo sapiens (Human))"
  inhibition at 10 µM (%): 0.54
- sampleSmiles: "COC(=O)NS(=O)(=O)c1sc(CC(C)C)c(C)c1-c1ccc(Cn2ccnc2Cl)cc1"
  subjectOfTest: "CYP1A2 (Homo sapiens (Human))"
  inhibition at 10 µM (%): 2.82
- sampleSmiles: "CCc1nccn1Cc1ccc(-c2cc(CC(C)C)sc2S(=O)(=O)NC(=O)OC)cc1C#N"
  subjectOfTest: "CYP1A2 (Homo sapiens (Human))"
  inhibition at 10 µM (%): 0

[P] COC(=O)NS(=O)(=O)c1sc(CC(C)C)c(C)c1-c1ccc(Cn2ccnc2C)cc1
[Q] CCCCOC(=O)NS(=O)(=O)c1sc(CC(C)C)cc1-c1ccc(Cn2ccnc2C)c(C#N)c1
query: Please indicate which has the smaller reported inhibition at 10 µM: P , or Q . API: response body contains the label of the selected item.
result: Q
(Q: 4.18%, P: 25%)
